Biological target: T1, recombinant human FGF23 (R179Q) (human, UniProt Q9GZV9 25-251)
T1 construct: also called rhFGF23(R179Q); hFGF23(R179Q)
T1 sequence (looked up): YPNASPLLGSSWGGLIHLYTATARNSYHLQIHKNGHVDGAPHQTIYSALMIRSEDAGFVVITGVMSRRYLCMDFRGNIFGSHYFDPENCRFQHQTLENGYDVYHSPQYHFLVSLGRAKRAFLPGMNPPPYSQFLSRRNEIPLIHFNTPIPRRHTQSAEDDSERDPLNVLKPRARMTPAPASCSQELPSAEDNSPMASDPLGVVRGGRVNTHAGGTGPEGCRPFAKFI
Experiment: SPR, antibody captured on hIgG chip, rhFGF23(R179Q) analyte
For each entry below, report its log10(koff) value.
Kindly note that the scale is log10 and the underlying koff is in s⁻¹.

BINDER	log10(koff)
UGX135 (antibody, human IgG1, kappa, V domains shown, also called LC:N92D) VH: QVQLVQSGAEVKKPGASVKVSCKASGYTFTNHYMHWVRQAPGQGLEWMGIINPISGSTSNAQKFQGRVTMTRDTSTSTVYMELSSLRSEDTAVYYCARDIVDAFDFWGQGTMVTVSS VL: AIQLTQSPSSLSASVGDRVTITCRASQGISSALVWYQQKPGKAPKLLIYDASSLESGVPSRFSGSGSGTDFTLTISSLQPEDFATYYCQQFDDYFTFGPGTKVDIKR	-3.74
UGX205 (antibody, human IgG1, kappa, V domains shown, also called HC:S59E, LC:Y94D; S59E/Y94D) VH: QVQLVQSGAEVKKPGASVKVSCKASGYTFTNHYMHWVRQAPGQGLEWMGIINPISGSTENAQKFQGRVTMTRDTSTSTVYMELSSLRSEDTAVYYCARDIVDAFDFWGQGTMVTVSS VL: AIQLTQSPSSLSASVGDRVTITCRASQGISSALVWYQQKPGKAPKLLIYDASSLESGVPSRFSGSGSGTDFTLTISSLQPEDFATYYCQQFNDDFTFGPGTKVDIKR	-4.20
UGX157 (antibody, human IgG1, kappa, V domains shown, also called HC:I54Y; I54Y) VH: QVQLVQSGAEVKKPGASVKVSCKASGYTFTNHYMHWVRQAPGQGLEWMGIINPYSGSTSNAQKFQGRVTMTRDTSTSTVYMELSSLRSEDTAVYYCARDIVDAFDFWGQGTMVTVSS VL: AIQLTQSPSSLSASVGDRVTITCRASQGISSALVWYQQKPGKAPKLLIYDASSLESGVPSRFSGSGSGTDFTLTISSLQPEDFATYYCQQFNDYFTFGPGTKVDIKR	-3.95
UGX137 (antibody, human IgG1, kappa, V domains shown, also called UGX035; LC:N92F) VH: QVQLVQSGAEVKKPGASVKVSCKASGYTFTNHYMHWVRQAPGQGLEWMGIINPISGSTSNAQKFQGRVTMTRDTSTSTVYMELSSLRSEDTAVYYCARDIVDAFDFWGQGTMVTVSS VL: AIQLTQSPSSLSASVGDRVTITCRASQGISSALVWYQQKPGKAPKLLIYDASSLESGVPSRFSGSGSGTDFTLTISSLQPEDFATYYCQQFFDYFTFGPGTKVDIKR	-3.79
UGX190 (antibody, human IgG1, kappa, V domains shown, also called HC:S59T, HC:V101L) VH: QVQLVQSGAEVKKPGASVKVSCKASGYTFTNHYMHWVRQAPGQGLEWMGIINPISGSTTNAQKFQGRVTMTRDTSTSTVYMELSSLRSEDTAVYYCARDILDAFDFWGQGTMVTVSS VL: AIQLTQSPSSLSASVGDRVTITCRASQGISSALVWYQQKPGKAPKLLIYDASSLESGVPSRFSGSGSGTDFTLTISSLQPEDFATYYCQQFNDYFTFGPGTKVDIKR	-1.99

For the 2 binders below, give their log10(koff) values.
1. UGX133 (antibody, human IgG1, kappa, V domains shown, also called UGX022; LC:S53Y) VH: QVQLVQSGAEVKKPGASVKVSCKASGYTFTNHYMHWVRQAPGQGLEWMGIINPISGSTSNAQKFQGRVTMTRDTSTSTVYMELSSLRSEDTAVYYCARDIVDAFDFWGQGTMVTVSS VL: AIQLTQSPSSLSASVGDRVTITCRASQGISSALVWYQQKPGKAPKLLIYDASYLESGVPSRFSGSGSGTDFTLTISSLQPEDFATYYCQQFNDYFTFGPGTKVDIKR
2. UGX152 (antibody, human IgG1, kappa, V domains shown, also called HC:N31Q) VH: QVQLVQSGAEVKKPGASVKVSCKASGYTFTQHYMHWVRQAPGQGLEWMGIINPISGSTSNAQKFQGRVTMTRDTSTSTVYMELSSLRSEDTAVYYCARDIVDAFDFWGQGTMVTVSS VL: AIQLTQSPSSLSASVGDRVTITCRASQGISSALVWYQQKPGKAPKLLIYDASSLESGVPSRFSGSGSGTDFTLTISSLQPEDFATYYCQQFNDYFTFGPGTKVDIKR

Return:
-3.13
-3.58

Give log10(koff) for each listed item.
1. UGX148 (antibody, human IgG1, kappa, V domains shown, also called HC:T30F) VH: QVQLVQSGAEVKKPGASVKVSCKASGYTFFNHYMHWVRQAPGQGLEWMGIINPISGSTSNAQKFQGRVTMTRDTSTSTVYMELSSLRSEDTAVYYCARDIVDAFDFWGQGTMVTVSS VL: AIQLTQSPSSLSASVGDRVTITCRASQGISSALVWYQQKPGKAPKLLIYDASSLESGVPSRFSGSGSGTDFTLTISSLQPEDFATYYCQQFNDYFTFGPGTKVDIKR
2. UGX192 (antibody, human IgG1, kappa, V domains shown, also called HC:N52F, HC:V101I) VH: QVQLVQSGAEVKKPGASVKVSCKASGYTFTNHYMHWVRQAPGQGLEWMGIIFPISGSTSNAQKFQGRVTMTRDTSTSTVYMELSSLRSEDTAVYYCARDIIDAFDFWGQGTMVTVSS VL: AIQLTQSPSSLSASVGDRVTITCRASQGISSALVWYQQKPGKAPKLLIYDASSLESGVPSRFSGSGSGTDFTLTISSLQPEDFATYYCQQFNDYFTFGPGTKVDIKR
3. UGX139 (antibody, human IgG1, kappa, V domains shown, also called UGX038; LC:N92Y) VH: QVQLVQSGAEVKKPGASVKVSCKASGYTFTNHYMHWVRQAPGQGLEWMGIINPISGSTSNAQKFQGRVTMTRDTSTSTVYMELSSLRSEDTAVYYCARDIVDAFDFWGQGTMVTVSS VL: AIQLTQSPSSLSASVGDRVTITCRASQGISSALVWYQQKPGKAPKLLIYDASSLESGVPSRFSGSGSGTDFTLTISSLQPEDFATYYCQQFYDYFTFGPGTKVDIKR

Return:
[-3.74, -1.63, -3.98]
